Reported values of MIC for individual entries
System: P. cepacia OF189
measurement description: MIC
experimental parameters: Burkholderia cepacia, OF189, P. cepacia OF189; Table 7
Where a name gives a salt, the structure may show the parent alone.

>  <compound>
CC(=O)Oc1ccc(C(=O)NNC(=O)C(C)(C)ON=C(C(=O)NC2C(=O)N3C(C(=O)O)=C(CSc4cc(C)nc5nc(C(F)(F)F)nn45)CS[C@H]23)c2csc(N)n2)cc1OC(C)=O (stereo partly drawn) [Example 48]

>  <MIC>
< 0.006 µg/mL

$$$$
>  <compound>
CC(=O)Oc1ccc(C(=O)NNC(=O)C(C)(C)ON=C(C(=O)NC2C(=O)N3C(C(=O)O)=C(CSc4c(C)c(C)nc5c(C(=O)O)cnn45)CS[C@H]23)c2csc(N)n2)cc1OC(C)=O (stereo partly drawn) [Example 47]

>  <MIC>
< 0.006 µg/mL

$$$$
>  <compound>
CC(=O)Oc1ccc(C(=O)NNC(=O)C(C)(C)ON=C(C(=O)NC2C(=O)N3C(C(=O)O)=C(CSc4ccnc5nc(C(=O)O)nn45)CS[C@H]23)c2csc(N)n2)cc1OC(C)=O (stereo partly drawn) [Example 46]

>  <MIC>
< 0.006 µg/mL

$$$$
>  <compound>
Cc1cc(SCC2=C(C(=O)O)N3C(=O)C(NC(=O)C(=NOC(C)(C)C(=O)NNC(=O)c4ccc(O)c(O)c4)c4csc(N)n4)[C@H]3SC2)n2nc(C(F)(F)F)nc2n1 (stereo partly drawn) [Example 55]

>  <MIC>
0.05 µg/mL

$$$$
>  <compound>
CC(=O)Oc1ccc(C(=O)NNC(=O)C(C)(C)ON=C(C(=O)NC2C(=O)N3C(C(=O)O)=C(CSc4cc(C)nc5c(C(=O)O)cnn45)CSC23)c2csc(N)n2)cc1OC(C)=O (stereo not drawn) [Example 53, sodium salt]

>  <MIC>
< 0.006 µg/mL

$$$$
>  <compound>
CC(=O)Oc1ccc(C(=O)NNC(=O)C(C)(C)ON=C(C(=O)NC2C(=O)N3C(C(=O)O)=C(CSc4cc(C)nc5nc(C(=O)O)nn45)CS[C@H]23)c2csc(N)n2)cc1OC(C)=O (stereo partly drawn) [Example 45]

>  <MIC>
0.012 µg/mL

$$$$
>  <compound>
Cc1cc(SCC2=C(C(=O)O)N3C(=O)C(NC(=O)C(=NOC(C)(C)C(=O)NNC(=O)c4ccc(O)c(O)c4)c4csc(N)n4)[C@H]3SC2)n2nccc2n1 (stereo partly drawn) [Example 58]

>  <MIC>
0.012 µg/mL

$$$$
>  <compound>
CC(C)(ON=C(C(=O)NC1C(=O)N2C(C(=O)O)=C(CSc3ccnc4nc(C(=O)O)nn34)CS[C@H]12)c1csc(N)n1)C(=O)NNC(=O)c1ccc(O)c(O)c1 (stereo partly drawn) [Example 56]

>  <MIC>
< 0.006 µg/mL

$$$$
>  <compound>
Cc1cc(SCC2=C(C(=O)O)N3C(=O)C(NC(=O)C(=NOC(C)(C)C(=O)NNC(=O)c4ccc(O)c(O)c4)c4csc(N)n4)[C@H]3SC2)n2nc(C)cc2n1 (stereo partly drawn) [Example 57]

>  <MIC>
0.012 µg/mL

$$$$

###

Each entry below carries its recorded MIC.
Test system: C. freundii 5D60-1
measurement description: MIC
experimental parameters: Citrobacter freundii, 5D601

>  <molecule>
CC(C)(ON=C(C(=O)NC1C(=O)N2C(C(=O)O)=C(CSc3ccnc4nc(C(=O)O)nn34)CS[C@H]12)c1csc(N)n1)C(=O)NNC(=O)c1ccc(O)c(O)c1 (stereo partly drawn)

>  <target entity>
C. freundii 5D60-1

>  <value unit>
µg/mL

>  <MIC>
6.25

$$$$
>  <molecule>
Cc1cc(SCC2=C(C(=O)O)N3C(=O)C(NC(=O)C(=NOC(C)(C)C(=O)NNC(=O)c4ccc(O)c(O)c4)c4csc(N)n4)[C@H]3SC2)n2nc(C)cc2n1 (stereo partly drawn)

>  <target entity>
C. freundii 5D60-1

>  <value unit>
µg/mL

>  <MIC>
1.56

$$$$
>  <molecule>
Cc1cc(SCC2=C(C(=O)O)N3C(=O)C(NC(=O)C(=NOC(C)(C)C(=O)NNC(=O)c4ccc(O)c(O)c4)c4csc(N)n4)[C@H]3SC2)n2nccc2n1 (stereo partly drawn)

>  <target entity>
C. freundii 5D60-1

>  <value unit>
µg/mL

>  <MIC>
1.56

$$$$
